# experimental target: Voltage-gated potassium channel subunit beta-2 (Rattus norvegicus)
# method description: enhancers of rat Kvbeta2 NADPH turnover – biochemical, NADPH fluorescence, primary screen (AID 623);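 further: fluorescence intensity change per second fitted from 20 to 320 s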
# measurement conditions: Recombinant KvBeta, NADPH fluorescence decrease slope, 10 min; at 10 µM; stronger effect = lower value
assay metric: NADPH fluorescence slope
Number only, no unit.

INSERT INTO assay_data (compound, recorded_value) VALUES
  ('Cc1ccc(S(=O)(=O)Cn2nnnc2C(C(C)C)N2CCN(C(=O)c3ccco3)CC2)cc1 (stereo unspecified)', '-4.2e-05'),
  ('C=CCNC(=O)CSc1nc2sc(C)c(C)c2c(=O)[nH]1', '-3.3e-05'),
  ('O=C(NCCCN1CCCC1=O)c1ccc2c(c1)NC(=O)C(N1CCOCC1)S2 (stereo unspecified)', '-3.9e-05'),
  ('O=C(O)Cn1nc2ccccc2n1', '1.5e-05'),
  ('O=C(Nc1nc(-c2ccncc2)cs1)C1COc2ccccc2O1 (stereo unspecified)', '-3.7e-05'),
  ('CC(=O)Oc1ccc(-c2ccc(C(=O)O)cc2)cc1', '-7.2e-06'),
  ('CCN(CC)S(=O)(=O)c1ccc(F)c(C(=O)NCCC(C)C)c1', '-1.6e-05'),
  ('CCOc1ccc(N(CC(=O)NCc2cccc(OC)c2)S(=O)(=O)c2c(C)noc2C)cc1', '1.6e-05');

State the recorded NADPH fluorescence slope for this entry: Cc1oc(C(=O)O)cc1CSCc1cc(C(=O)O)c(C)o1
3.2e-05

Quick check: NADPH fluorescence slope of CCOC(=O)C1CCN(C(c2cc3cc(C)cc(C)c3[nH]c2=O)c2nnnn2C2CCCCC2)CC1 (stereo unspecified) ?
-3.6e-06

Any idea what its NADPH fluorescence slope is? The compound is Cn1cccc1Cc1nnc(SCC(=O)NCC2CCCO2)n1-c1ccc(F)cc1 (stereo unspecified)
-3e-05

----------
# method description: endothelial E-selectin expression blockers – imaging, HUVEC, immunofluorescence, MLSMR starter and 10KST1 sets, primary screen (AID 487);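 further: signal is fraction of cell area covered by stained E-selectin grains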
# measurement conditions: HUVEC TNFalpha-induced E-selectin immunofluorescence imaging, at 2 µM; stronger effect = higher value
The reader will find reported inhibition values listed item by item below.
Supply the numeric figure in %, leaving out any unit text.

Please review the entries below; each comes with its answer.
INSERT INTO measurements (compound, recorded_value) VALUES
  ('CSc1cccc(NS(=O)(=O)c2ccccc2)c1', -38),
  ('O=C(CSc1nnnn1-c1ccccc1)c1cc2ccccc2oc1=O', -39.8),
  ('CC(=O)N1CCN(c2ccc(S(=O)(=O)N3CCCCC3)cn2)CC1', -6.8),
  ('Nn1cnnc1SCC(=O)Nc1ccc2c(c1)OCCO2', -74.7),
  ('Cc1ccccc1CN1CCN(CC(=O)NCc2ccccc2)C1=O', -45.7),
  ('CCN(CC)c1ccc2cc(NC(=O)CCC(=O)O)c(=O)oc2c1', -33),
  ('CCOC(=O)N1CCN(C(=O)CSc2nnc(Cc3ccccc3)o2)CC1', -53.8),
  ('CC(C)n1c(NCc2c[nH]c3ccccc23)nc2ccccc21', -5.1);

If you can, please state the reported inhibition value of Cc1ccc2c(c1)N(CC(=O)Nc1ccc3c(c1)OCCO3)C(=O)CO2 .
-6.2

So what's the measured inhibition for this one? c1ccc2oc(SCc3cn4ccccc4n3)nc2c1
-30.4

Using the record for Cc1cc(-n2c(C)cc(C(=O)CSc3nc4ccccc4c(=O)n3Cc3ccco3)c2C)no1 , report its inhibition.
-104

Entry under review: O=S(=O)(c1ccc(S(=O)(=O)N2CCN3CCCC3C2)cc1)N1CCCC1 (configuration not stated) . Reported inhibition?
34.6

Requested field: inhibition. Item: Cc1ccc(-c2nn3c(C)nnc3s2)cc1N
4.3

----------
# method description: reduction of polyQ htt aggregates in cells – imaging, exon1htt(103Q)mCFP cells, high-content imaging, primary screen (AID 483);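 further: compound exposure lasted 3 days before fixation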
# measurement conditions: exon1htt(103Q)mCFP cell line, aggregate imaging, at 2 µM; stronger effect = higher value
Quick reference for inhibition of aggregation among some compounds
Report the figure in % without appending any unit label.

Known inhibition of aggregation results, listed for orientation:
INSERT INTO assay_data (compound, assay_metric, scale_unit, recorded_value) VALUES
  ('CC1=C(C(N)=O)C(c2ccncc2)n2nc(-c3ccccc3Cl)nc2N1 (stereo unspecified)', 'inhibition of aggregation', '%', 5.7),
  ('Cc1ccc2c(CNCc3ccco3)cc(=O)oc2c1', 'inhibition of aggregation', '%', 21.5),
  ('CC(=O)Nc1ccc(S(=O)(=O)N2CCC(c3nc4ccccc4[nH]3)CC2)cc1', 'inhibition of aggregation', '%', 14.3),
  ('CC1CCN(C(=O)CSc2nc3ccccc3[nH]2)CC1', 'inhibition of aggregation', '%', 1.8),
  ('CN1CCN(C(c2cccc(C(F)(F)F)c2)c2nnnn2C(C)(C)C)CC1 (stereo unspecified)', 'inhibition of aggregation', '%', 32.7),
  ('CCOc1ccc(CNC(=O)C2CCCN(S(C)(=O)=O)C2)cc1OC (stereo unspecified)', 'inhibition of aggregation', '%', 11.9),
  ('COc1ccc(-c2noc(CSc3nc(N)c(-c4ccccc4)c(=O)[nH]3)n2)cc1OC', 'inhibition of aggregation', '%', -0.8),
  ('CC(NC(=O)Cc1cccs1)c1ccc2c(c1)OCO2 (stereo unspecified)', 'inhibition of aggregation', '%', -3.8);

Sample Cn1c(Cc2ccccc2)nnc1SCC(=O)N1CCOCC1 — what was its inhibition of aggregation?
-33

So what does the record say about inhibition of aggregation for c1ccc(CNc2c3c(nc4ncnn24)CCCC3)nc1 ?
-30.3

----------
# method description: inhibitors of TNFa-induced NFkB p65 translocation, primary screen, imaging, HUVEC, MLSMR starter and 10KST1 sets (AID 438);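 further: compound added about 3h40 before a 20 min TNFalpha stimulation; signal is the nuclear over cytoplasmic p65 intensity ratio per well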
# measurement conditions: HUVEC TNFa-induced p65 nuclear translocation; at 2 µM, stronger effect = higher value, 0% TNFa-plus-vehicle, 100% no-TNFa wells
Reported inhibition values for the following molecules.
Hi! Could you send only the number? It should be in %, unit omitted.

INSERT INTO assay_data (molecule, scale_unit, recorded_value) VALUES
  ('O=C(Nc1cccnc1)c1noc2c1CCCCC2', '%', -3.9);

I would be grateful if you could share the reported inhibition for Cc1ccc2[nH]c(=O)c3cc(C(=O)NCCN4CCN(C)CC4)sc3c2c1 .
-0.5

Which value of inhibition has been reported for N#CC1=C(N)Oc2c(ccc3cccnc23)C1c1cccnc1 (configuration not stated) in the records?
7.3

----------
# key: entry, value: nuclei count
# method description: reduction of polyQ htt aggregates in cells – imaging, exon1htt(103Q)mCFP cells, high-content imaging, primary screen (AID 483);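 further: compound exposure lasted 3 days before fixation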;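 on nuclei count: percent of the per-plate median nuclei count of sample wells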
# measurement conditions: exon1htt(103Q)mCFP cell line, aggregate imaging, at 2 µM; measured here: cell count, toxicity
Give your result in % as a bare value.

For orientation, consider the following solved cases.
INSERT INTO measurements (compound, assay_metric, scale_unit, recorded_value) VALUES
  ('CC(CCc1ccccc1)NC(=O)CSc1nc(N)cc(N)n1 (stereo not drawn)', 'nuclei count', '%', 10.8),
  ('O=C(c1ccc(Br)o1)N(c1ccc(Br)cc1)C1C=CS(=O)(=O)C1 (stereo not drawn)', 'nuclei count', '%', 108);

What does the data say about its nuclei count? Entry: c1ccc(-n2cnc3cc(NCc4ccccn4)ccc32)cc1
102

Recorded nuclei count of CSc1ccc(S(=O)(=O)Nc2cccc(F)c2)cc1 , please.
82.9

Look up nuclei count for this compound: O=[n+]1c2c(n([O-])c3c1CCCC3)CCCC2
109

----------
# method description: blockers of RIG-like receptor reporter activation – cell-based, Sendai virus stimulus, luciferase, 10K MLSCN set, TLR/RLR signaling modifier project, primary screen (AID 602276);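 further: firefly luciferase from ISG56 promoter only with Renilla not read in this screen; 0% = Sendai virus plus DMSO and 100% = medium plus DMSO without virus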
# measurement conditions: HEK293 RL24 IRF3 luciferase reporter, at 10 µM, stronger effect = higher value
assay metric: inhibition (%)
Record the value in %, omitting the unit from your answer.

Examples with their reported inhibition follow.
INSERT INTO measurements (molecule, recorded_value) VALUES
  ('CN1CCN(C2=C(Cl)C(=O)N(c3cccc(Cl)c3)C2=O)CC1', 5.11),
  ('CC(CCc1ccccc1)NC(=O)CSc1nc(N)cc(N)n1 (stereo unspecified)', 8.76),
  ('Cc1ccc(-c2nnc3c4ccccc4c(C)nn23)cc1NC(=O)c1ccco1', -0.847),
  ('COc1ccc(-c2cc(C(F)(F)F)n3ncc(C(=O)NCC4CCCO4)c3n2)cc1 (stereo unspecified)', 13.6),
  ('COc1cccc(NC(=O)N2CCN(c3cccc(C)c3C)CC2)c1', -24.5),
  ('COc1ccc(C2C(C#N)=C(N)Oc3cc4c(cc32)OCO4)cc1 (stereo unspecified)', -6.84),
  ('COCc1[nH]nc2c1C(c1cc(OC)c(O)c(OC)c1)C(C#N)=C(N)O2 (stereo unspecified)', 17.4),
  ('COc1ccc(C(=O)Nc2nc(C)c(C(=O)N(C)C)s2)cc1OC', -7.68);

Give its inhibition value. Item: Cc1ccc(C(=O)CSc2n[nH]c(-c3ccco3)n2)cc1C
0.966

What does the data say about its inhibition? Entry: CCOC(=O)CSC1=C(C#N)C(c2ccc(C)o2)CC(=O)N1 (stereo unspecified)
10.4

What value of measured inhibition is listed for CCOC(=O)C1CCCN(c2c(N3CCN(c4ccccn4)CC3)c(=O)c2=O)C1 (stereo unspecified) ?
3.88

What does the record list as inhibition for Cc1cc(C(=O)OCC(=O)N2c3ccccc3CC2C)c(C)o1 (stereo unspecified) ?
-14.2

Endpoint output: inhibition of Cc1ccc2nc(-c3ccccn3)cc(C(=O)N3CCN(c4ncccn4)CC3)c2c1 . Value?
4.96
